# assay overview: A qHTS for Small Molecule Inhibitors of Shiga Toxin
# condition summary: Vero cells, Shiga toxin protein synthesis inhibition reporter; at 38.7 µM, stronger effect = higher value
Hit rate of the full screen: of about 290,000 compounds, about 27,000 (9.3%) were called active. The full list was thinned out, with actives kept by preference.

compound | inhibition [%]
Cc1c(NC(=O)c2cc(-c3ccc(Br)cc3)on2)c(=O)n(-c2ccccc2)n1C | 20
NC(=O)c1ccc(NC(=O)COC(=O)c2c3c(nc4ccccc24)/C(=C\c2ccc4c(c2)OCO4)CCC3)cc1 | 59.8
CCOC(=O)c1c(C)nc(-c2ccccc2)nc1NC(=O)C(C)C | 38.3
CN1CN(C)c2ccc([N+](=O)[O-])c3cccc1c23 | 4.19
NS(=O)(=O)c1ccc(NC(=O)COC(=O)c2ccc(Cl)nc2)cc1 | -4.23
NS(=O)(=O)c1ccc(NC(=O)COC(=O)c2c3c(nc4ccccc24)/C(=C\c2ccc4c(c2)OCO4)CCC3)cc1 | 3.72
CC(C)CNC(=O)c1cc(-c2ccc(Br)cc2)on1 | 52.5
Cc1c(CC(=O)N2CCN(C(=O)C3COc4ccccc4O3)CC2)c(=O)oc2c(O)c(O)ccc12 (stereo not given) | 6.52
O=C1Nc2cc(C(=O)N3CCC(N4CCCCC4)CC3)ccc2S/C1=C\c1ccccc1 | -12.8
CCC(=O)OCCNc1nc(-c2ccccc2)nc2ccccc12 | -14.7

---

# assay overview: A qHTS for Small Molecule Inhibitors of Shiga Toxin
# condition summary: Vero cells, Shiga toxin protein synthesis inhibition reporter; at 38.7 µM, stronger effect = higher value
About 27,000 (9.3%) of roughly 290,000 compounds were called active. The list comes from a sample in which actives are over-represented; it also holds close analogues and randomly drawn compounds.

molecule | measurement unit | inhibition
Cc1cccc(N(C)C(=O)c2cc(S(=O)(=O)N3CCCCC3)c[nH]2)c1 | % | -6.21
COc1ccc(NC(=O)C(C)N2c3cccc4cccc(c34)S2(=O)=O)c(OC)c1 (stereo not given) | % | -11.7
COc1ccc(S(=O)(=O)N2CCCC(C(=O)NCCCn3ccnc3)C2)cc1OC (stereo not given) | % | -5.4
Cc1ccc(OCC(=O)Nc2ccccc2C(=O)NC2CC2)cc1C | % | -4.84
COc1ccc(S(=O)(=O)Nc2ccc(O)c(Sc3nc4ccccc4s3)c2)cc1 | % | -14.7
O=C(N/N=C/c1coc2ccccc2c1=O)c1cc2ccccc2o1 | % | -15.3
COc1ccc(O)c(/C=N/N=C/c2cccc([N+](=O)[O-])c2)c1 | % | 1.13
COc1ccccc1CN1CCNC(=O)C1CC(=O)N(C)CC1CCOCC1 (stereo not given) | % | -2.77
Cc1c(/C=N\NC(=O)c2cc3ccccc3o2)c2ccccc2n1C | % | 33.2
O=C(N/N=C/c1ccc([N+](=O)[O-])cc1)c1c[nH]c2ccccc12 | % | 35.6

---

# assay overview: A qHTS for Small Molecule Inhibitors of Shiga Toxin
# condition summary: Vero cells, Shiga toxin protein synthesis inhibition reporter; at 38.7 µM, stronger effect = higher value
The whole screen tested about 290,000 compounds, of which about 27,000 (9.3%) were called active. The sample as a whole holds a higher share of actives than the screen did.

compound | inhibition (%)
CCOc1ccc(C(CC(=O)O)NC(=O)Cc2ccccc2)cc1OC (stereo unspecified) | -3.82
CN(C)c1ccc(CNC(=O)CN2C(=O)COc3ccc(S(=O)(=O)N4CCCC4)cc32)cc1 | -2.88
COc1ccc(C(=O)c2c(C)c(CCC#N)n3ccccc23)c(OC)c1 | -12.7
CCCCc1nc(SCC(=O)Nc2nnc(C(C)C)s2)n[nH]1 | 24
COc1cc(/C=N/N2CCN(c3ccccc3)CC2)ccc1OC(C)=O | 23.8
Cc1cccc(N=Nc2c(C)[nH]n(-c3ccccc3)c2=O)c1 | -4.8
CC1CCCCC1NC(=O)CCS(=O)(=O)c1ccc2c(c1)NC(=O)CO2 (stereo unspecified) | 49.7
CN(C)c1ccc(/C=C2\NC(=S)N(Cc3ccccc3)C2=O)cc1 | 3.47
O=C1COc2ccc(S(=O)(=O)Nc3ccc(OC(F)(F)F)cc3)cc2N1 | -4.37
COC(=O)c1ccc(OC(=O)c2cnccn2)cc1 | -3.05
Cc1[nH]n(C(N)=S)c(=O)c1N=Nc1ccc(Cl)cc1Cl | 44.3

---

# assay overview: A qHTS for Small Molecule Inhibitors of Shiga Toxin
# condition summary: Vero cells, Shiga toxin protein synthesis inhibition reporter; at 38.7 µM
In all, about 290,000 compounds went through this assay and about 27,000 (9.3%) were called active. Cut-off read from the data, not from the text of the source: active = inhibition mostly above about 28% (no sharp cut-off); inactive = mostly below about 43%. This excerpt belongs to a sample that is enriched for actives.
Outcome codes: active, inactive

compound | answer label
OC(c1nc2ccccc2[nH]1)C(O)C(O)C(O)c1nc2ccccc2[nH]1 (configuration not stated) | inactive
CN(C(=O)CC1C(=O)NCCN1Cc1ccc(F)cc1Cl)C1CCCCC1 (configuration not stated) | inactive
Cc1ccnc(Nc2nc3ccccc3s2)n1 | active
O=C(Cc1ccccc1)N/N=C/c1ccc(Cl)cc1Cl | inactive
Cc1ccccc1N1CC(c2nc3ccccc3[nH]2)CC1=O (configuration not stated) | inactive
Cc1ccc(-c2nc3ccccc3[nH]2)cc1N | active
CSCCC(Nc1nc2ccccc2s1)C(=O)O (configuration not stated) | inactive
COc1ccc(-c2[nH]nc(-c3ccccc3)c2-c2nc3ccccc3[nH]2)cc1 | inactive
Cc1ccc(S(=O)(=O)Nc2nc3ccccc3s2)cc1[N+](=O)[O-] | inactive
O=C(CCCCCNC(=O)c1ccccc1)N/N=C/c1ccccc1 | inactive
O=C(CCC(=O)Nc1ccccc1)N/N=C/c1ccccc1F | active
Cc1ccc(-c2nc3ccccc3[nH]c2=O)cc1 | inactive

---

# assay overview: A qHTS for Small Molecule Inhibitors of Shiga Toxin
# condition summary: Vero cells, Shiga toxin protein synthesis inhibition reporter; at 38.7 µM, stronger effect = higher value
Screen size: about 290,000 compounds; about 27,000 (9.3%) were called active. Many of the other results were omitted from the sample, so actives are more common in it than they were.
observable: inhibition (%)

compound | readout number
CCNS(=O)(=O)c1ccc(CCC(=O)N2CCN(c3cc(Cl)ccc3C)CC2)cc1 | -3.72
Cc1ccc(C(=O)NC(C)c2ccccc2)cc1Br (stereo unspecified) | 38.4
Cc1ccnc(NC(=O)C2CCN(S(=O)(=O)c3c(C)c(C)cc(C)c3C)CC2)c1 | 8.68
C=CCNC(=O)c1ccc(C)c(Br)c1 | 19.7
Cc1ccc(/C=C2/SC(=S)N(CCC(=O)NCCCN3CCOCC3)C2=O)cc1 | 21.5
COC(=O)c1ccc(NC(=O)c2cc3c(CO)cnc(C)c3oc2=Nc2cccc(C(N)=O)c2)cc1 | -1.8
Cc1ccsc1-c1cc(C(=O)O)c2c(ccc3ccccc32)n1 | 17.5
Cc1ccc(C(C)C)c(OCCSc2nc3ccccc3n2CC(=O)O)c1 | -6.58
CCOC(=O)c1cc(C)nc(S(C)(=O)=O)c1C#N | 47.2
CS(=O)(=O)N1CCN=C1SCc1ccc(F)cc1 | 9.38
CCCOc1ccc(-c2c(C(=O)N/N=C/c3ccco3)nnn2-c2nonc2N)cc1 | -3.97

---

# assay overview: A qHTS for Small Molecule Inhibitors of Shiga Toxin
# condition summary: Vero cells, Shiga toxin protein synthesis inhibition reporter; at 38.7 µM
Hit rate of the full screen: of about 290,000 compounds, about 27,000 (9.3%) were called active. Rule as the data show it: active = inhibition mostly above about 28% (no sharp cut-off); inactive = mostly below about 43%. The entries come from a sample that favours actives as a whole.
Outcome codes: 1 for active, 0 for inactive

molecule | answer label
COc1ccc2cc(S(=O)(=O)Nc3ccccn3)ccc2c1 | 0
CC(=O)C(C)n1cnc2scc(-c3ccc(C)cc3)c2c1=O (configuration not stated) | 0
O=C(CN1C(=O)S/C(=C\c2ccccc2F)C1=O)NCCCn1ccnc1 | 0
Cc1cc(C)cc(NC(=O)C2CCCN2S(=O)(=O)c2cccc3cccnc23)c1 (configuration not stated) | 0
COc1ccc(/C=C2\SC(=O)N(CCC(=O)NCCCn3ccnc3)C2=O)cc1 | 1
COc1ccc(NC(=O)CCN2C(=O)/C(=C/c3ccc4c(c3)OCO4)SC2=S)cc1 | 0
O=C(OCC(=O)N1CCN(C(=O)c2ccco2)CC1)c1cccc(O)c1 | 0
COC(=O)C1CCN(C(=O)c2ccc3oc(Cc4ccc(Cl)cc4)nc3c2)CC1 | 0
CCOCCCN(C)C1CCN(C(=O)c2oc3ccccc3c2NC(=O)Cc2cccc([N+](=O)[O-])c2)CC1 | 0
CCC(C(=O)NCc1cccnc1)n1nc(C)c2sc3ccccc3c2c1=O (configuration not stated) | 0
COc1ccc(S(=O)(=O)/N=C2\C=C(NS(=O)(=O)c3ccccc3)C(=O)c3ccccc32)cc1 | 1
CN(CCNC(=O)c1cc2c(-c3ccccc3F)nn(C)c2s1)C1CCCCC1 | 0
O=C(/C=C/c1ccccc1[N+](=O)[O-])OC1CCCCC1=O (configuration not stated) | 0
CC(C)CNC(=O)C(=O)NCC(c1ccc2c(c1)OCO2)N1CCOCC1 (configuration not stated) | 0
COCC1CCN(C(=O)c2ccc3oc(Cc4ccccc4)nc3c2)C1 (configuration not stated) | 1
COc1ccc(Nc2ncc(F)c(N3CCOCC3)n2)cc1 | 1
c1ccc(Nc2nc(N3CCOCC3)c3ccccc3n2)cc1 | 0
COc1ccccc1/C=C1\SC(=O)N(CCC(=O)N(C)C2CCS(=O)(=O)C2)C1=O (configuration not stated) | 0
O=C(Cc1ccc(Br)cc1)NCCN1CCOCC1 | 0
O=C(/C=C/c1ccccc1[N+](=O)[O-])NCC1CCCO1 (configuration not stated) | 0
CC(C(=O)c1ccc(-c2ccccc2)cc1)[n+]1cccc(Br)c1 (configuration not stated) | 0
COc1ccc(S(=O)(=O)Nc2c(C)n(C)n(-c3ccccc3)c2=O)cc1 | 0
